target: EGFR^T790M (Homo sapiens, UniProt P00533, T790M); assay: Caliper Mobility Shift Assay, mutant EGFR kinase; type: biochemical; details: read-out: Inhibition of Kinase Activity (IC50, nM) EGFR^T790M
Sequence (P00533 25-1210 T790M): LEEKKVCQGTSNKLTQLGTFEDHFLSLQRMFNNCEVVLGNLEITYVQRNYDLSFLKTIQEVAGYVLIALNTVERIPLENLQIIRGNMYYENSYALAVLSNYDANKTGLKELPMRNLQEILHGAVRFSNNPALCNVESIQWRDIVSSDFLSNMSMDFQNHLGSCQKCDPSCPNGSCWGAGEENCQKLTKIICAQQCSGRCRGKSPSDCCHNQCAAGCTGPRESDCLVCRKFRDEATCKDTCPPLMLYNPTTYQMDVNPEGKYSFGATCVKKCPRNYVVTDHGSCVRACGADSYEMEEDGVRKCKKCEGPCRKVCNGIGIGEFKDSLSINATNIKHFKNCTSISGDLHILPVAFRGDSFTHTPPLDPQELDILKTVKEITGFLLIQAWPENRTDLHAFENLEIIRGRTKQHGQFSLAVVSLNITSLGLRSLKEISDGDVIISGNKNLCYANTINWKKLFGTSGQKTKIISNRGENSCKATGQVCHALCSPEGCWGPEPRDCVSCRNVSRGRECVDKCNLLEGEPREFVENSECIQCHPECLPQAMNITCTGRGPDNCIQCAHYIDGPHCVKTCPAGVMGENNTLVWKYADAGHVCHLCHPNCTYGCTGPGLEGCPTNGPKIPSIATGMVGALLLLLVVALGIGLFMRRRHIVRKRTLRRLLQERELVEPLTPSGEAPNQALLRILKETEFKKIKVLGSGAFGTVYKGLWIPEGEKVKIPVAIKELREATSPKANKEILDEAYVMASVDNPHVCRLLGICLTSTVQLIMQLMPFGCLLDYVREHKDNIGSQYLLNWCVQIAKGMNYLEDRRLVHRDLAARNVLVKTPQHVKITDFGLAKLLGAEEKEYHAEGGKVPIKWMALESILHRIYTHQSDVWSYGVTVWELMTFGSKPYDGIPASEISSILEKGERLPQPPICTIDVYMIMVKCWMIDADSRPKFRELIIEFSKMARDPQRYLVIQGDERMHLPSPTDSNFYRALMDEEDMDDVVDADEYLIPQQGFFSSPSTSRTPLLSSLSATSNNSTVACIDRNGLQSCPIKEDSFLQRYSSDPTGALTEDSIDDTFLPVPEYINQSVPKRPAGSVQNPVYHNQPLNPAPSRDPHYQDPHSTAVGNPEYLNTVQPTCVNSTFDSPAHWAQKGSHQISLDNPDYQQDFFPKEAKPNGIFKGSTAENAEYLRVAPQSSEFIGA
Measurement Label: IC50 (nM)
Answers are plain numbers, in nM.

For CN(C)C/C=C/C(=O)Nc1cc2c(Nc3ccc(F)c(Cl)c3)ncnc2cc1OC(F)F [Compound Ie] the compound record lists IC50 as 4.6

* * *

Tested on: MDA-MB-231
Experiment: Inhibition of tumor cells, MTS method
Type: cell-based
Conditions: Homo sapiens, 72 hours
Description: (1) Compounds: in vitro studies the test compounds was dissolved in 100% DMSO and diluted until the final concentration of DMSO was 0.1%. The 0.1% (v/v) DMSO was added into culture medium as solvent control. […] The cell activity was detected using MTS. […] OD value was detected by ELIASA at A450 nm. […] Mean value was calculated for each 3 repeated wells, and IC50 was calculated using nonlinear regression (fitted curve) data analysis method.
Measurement Label: IC50 (µM)
Answers are plain numbers, in µM.

Working through the 2 molecules below one at a time, give IC50 for each.
1. O=C(/C=C/c1ccccn1)Nc1cc2c(Nc3ccc(F)c(Cl)c3)ncnc2cc1OC1CCOC1 (centres unmarked) [Compound Ib]
2. COc1cc2ncnc(Nc3ccc(F)c(Cl)c3)c2cc1NC(=O)/C=C/CN(C)Cc1ccccc1 [Compound Ic]

## Output
1: 4.01; 2: 13.9

Source listed as patent US20150065709A1.
